# subjectOfTest: BACE 1 (Beta Secretase enzyme) (Homo sapiens)
# Sequence (P56817 46-501, species assumed): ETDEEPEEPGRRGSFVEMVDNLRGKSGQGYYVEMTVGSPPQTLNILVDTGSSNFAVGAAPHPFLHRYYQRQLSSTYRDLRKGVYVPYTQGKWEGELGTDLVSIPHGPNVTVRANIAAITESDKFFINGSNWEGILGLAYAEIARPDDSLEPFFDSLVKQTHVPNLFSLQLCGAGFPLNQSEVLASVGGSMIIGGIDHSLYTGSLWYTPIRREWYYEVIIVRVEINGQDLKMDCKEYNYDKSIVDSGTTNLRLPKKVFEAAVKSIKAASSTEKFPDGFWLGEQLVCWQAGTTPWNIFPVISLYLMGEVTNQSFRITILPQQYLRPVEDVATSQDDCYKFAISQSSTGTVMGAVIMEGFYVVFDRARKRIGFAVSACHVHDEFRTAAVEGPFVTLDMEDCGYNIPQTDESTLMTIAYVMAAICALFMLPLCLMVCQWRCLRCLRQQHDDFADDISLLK
# measurementNotes: In vitro enzymatic BACE FRET assay
# Format: biochemical
# conditionLabel: IC50 range symbols, Table 1; read-out: BACE 1 FRET assay
# Experimental: In Vitro Enzymatic BACE FRET (Fluorescence Resonance Energy Transfer) Assay (Enzyme Assay Data in Table 1) The assay buffer used in this screen is 0.05 M acetate, pH 4.2, 10% DMSO final, 100 uM genapol (which is a nonionic detergent, below its Critical Micelle Concentration). […] The FRET assay is terminated with by addition of Tris buffer, which raises the pH to neutrality, and the fluorescence is determined. […]
pIC50: −log10 of the molar value.
assayReadout: pIC50

                                    compound    testresult
 0  Cc1ccccc1-c1ccc2nc(N)c(CCC(=O)N[C@H](C)c3cccnc3)cc2c1 [Example 78]  5.30 to 6.00
 1  N#Cc1ccccc1-c1ccc2nc(N)c(CCC(=O)NCC3CCCCC3)cc2c1        > 6.30
 2  C#CC1CC(NC(=O)[C@H](C)Cc2cc3cc(-c4ccccc4C)ccc3nc2N)CCO1 (some centres unmarked)        > 6.30
 3  COc1ccccc1[C@@H](C)NC(=O)[C@@H](C)Cc1cc2cc(-c3ccccc3C)ccc2nc1N        > 6.30
 4  Cc1cccnc1-c1cc2cc(CC(C)C(=O)NCCC(C)(C)C)c(N)nc2cc1F (centres unmarked)        > 6.30
 5  Cc1ccccc1-c1ccc2nc(N)c(CC(C)C(=O)NC(C)c3ccccc3F)cc2c1 (centres unmarked)        > 6.30
 6  Cc1ccccc1-c1ccc2nc(N)c(CCC(=O)NC3CCOC(C)(C)C3)cc2c1 (centres unmarked)        > 6.30
 7  Cc1ccccc1-c1ccc2nc(N)c(C[C@@H](C)C(=O)NC3CCOC(C)C3)cc2c1 (some centres unmarked)        > 6.30
 8  Cc1cccnc1-c1ccc2nc(N)c(CC(C)C(=O)NCCC3CC3)cc2c1 (centres unmarked)        > 6.30
 9  COCC1CC1c1ccc2nc(N)c(CC(C)C(=O)NCCC(C)(C)C)cc2c1 (centres unmarked)        < 5.30
10  Cc1cccc(C(=O)N2CCCC2)c1-c1ccc2nc(N)c(CC(C)C(=O)NC3CC3)cc2c1 (centres unmarked)        > 6.30
11  Cc1ccccc1-c1ccc2nc(N)c(CCC(=O)NCCC(C)(C)O)cc2c1        > 6.30
12  Cc1ccccc1-c1ccc2nc(N)c(CC(C)C(=O)N[C@H](C)c3ccccc3OC(F)F)cc2c1 (some centres unmarked) [Example 77]        > 6.30
13  Cc1ccccc1-c1cc2cc(CCC(=O)NCC3CCCCC3)c(N)nc2cc1C        > 6.30
14  CC(Cc1cc2cc(C3CC3C)ccc2nc1N)C(=O)NCCC(C)(C)C (centres unmarked)        > 6.30
15  Cc1ccccc1-c1ccc2nc(N)c(CCC(=O)Nc3ccccc3)cc2c1        > 6.30
16  Cc1ccccc1-c1ccc2nc(N)c(CCC(=O)NCc3ccn(C)n3)cc2c1  5.30 to 6.00

Just for reference, patent US9296698B2 is where these values come from.
